Values from paper PMC8719450

type: in vitro ADME; settings: human, human liver microsomes (sample HH54), probe flavone (60 µM), formation of diOHFM4 (3´4´diOHF)
List of inhibition at 20 min values.

Ask | # get_value(readout='inhibition at 20 min', item= `O=c1cc(-c2ccccc2)oc2c1ccc1ccccc12` )
Reply | 65%

Ask | # get_value(readout='inhibition at 20 min', item= `O=c1ccc2ccccc2o1` )
Reply | 75%
